Source of measurements: ChEMBL document CHEMBL4196161

# TEST_DESCRIPTION: Half life in Sprague-Dawley rat at 1 mg/kg, iv administered as single dose by LC-MS/MS analysis
# Format: ADME, organism-based
# APPLIED_CONDITIONS: in vivo
MEASURED_METRIC: half-life
Answer format: number, then unit.

Some compounds with known half-life results, for comparison:
# STRUCTURE_NOTATION, half-life
measured = [
    ("O=c1[nH]c2ccc(-c3c(Cl)cccc3OC(F)(F)F)cc2[nH]1", "5.8 h"),
    ("O=c1[nH]c2ccc(-c3c(Cl)cccc3C3CC3)cc2[nH]1", "2.7 h"),
    ("Cc1cc(-c2c(Cl)cncc2OC(F)F)cc2c1NC(=O)C2", "1.2 h"),
    ("Cc1cc(-c2c(Cl)cccc2OC(F)(F)F)cc2c1NC(=O)C2", "1.9 h"),
]

Here is the next item to consider.
stdin: What value of half-life has been recorded for this entry: Cc1cc(-c2c(Cl)cncc2OC(F)(F)F)cc2c1NC(=O)C2
stdout: 1.4 h

====

# TEST_DESCRIPTION: Clearance in Sprague-Dawley rat at 1 mg/kg, iv administered as single dose by LC-MS/MS analysis
# Format: ADME, organism-based
# APPLIED_CONDITIONS: in vivo
Known clearance of a selection of compounds
Write the number in mL/min/kg without appending the unit.

Some compounds with known clearance results, for comparison:
# STRUCTURE_NOTATION, clearance (mL/min/kg)
rows = [
    ("O=c1[nH]c2ccc(-c3c(Cl)cccc3OC(F)(F)F)cc2[nH]1", 6.9),
    ("Cc1cccc(C)c1-c1ccc2[nH]c(=O)[nH]c2c1", 9),
    ("Cc1cc(-c2c(Cl)cccc2OC(F)(F)F)cc2c1NC(=O)C2", 28),
    ("Cc1cc(-c2c(Cl)cncc2OC(F)F)cc2c1NC(=O)C2", 19),
    ("O=c1[nH]c2ccc(-c3c(Cl)cccc3C3CC3)cc2[nH]1", 21),
]

Here is the next item to consider.
stdin: What value of clearance has been recorded for this entry: Cc1cc(-c2c(Cl)cncc2OC(F)(F)F)cc2c1NC(=O)C2
stdout: 37

====

Known Papp B→A at 1 h, 5 µM of a selection of compounds
# TEST_DESCRIPTION: Apparent permeability across basolateral to apical side in MDCK-MDR1 cells at 5 uM measured after 60 mins by LC-MS/MS analysis
# Format: ADME, cell-based, Canis lupus familiaris
# APPLIED_CONDITIONS: dog
Write the number in ×10⁻⁶ cm/s without appending the unit.

Some compounds with known Papp B→A at 1 h, 5 µM results, for comparison:
# STRUCTURE_NOTATION, Papp B→A at 1 h, 5 µM / ×10⁻⁶ cm/s
records = [
    ("Cc1cc(-c2c(Cl)cncc2OC(F)F)cc2c1NC(=O)C2", 66),
    ("COc1cccc(Cl)c1-c1ccc2[nH]c(=O)[nH]c2c1", 50),
]

stdin: What value of Papp B→A at 1 h, 5 µM has been recorded for this entry: Cc1cccc(Cl)c1-c1ccc2[nH]c(=O)[nH]c2c1
stdout: 32

stdin: What value of Papp B→A at 1 h, 5 µM has been recorded for this entry: Cc1cccc(C)c1-c1ccc2[nH]c(=O)[nH]c2c1
stdout: 34

stdin: What value of Papp B→A at 1 h, 5 µM has been recorded for this entry: O=c1[nH]c2ccc(-c3c(Cl)cncc3Cl)cc2[nH]1
stdout: 83
